biological target: T1, Mutant Human HTT Exon 1 48Q (GST) (human); assay: HTT sandwich ELISA, biological repeat 3
T1 construct: recombinant His- and GST-tagged fusion; also called HTT Exon 1 Q48; 48Q HTT Exon-1
T1 sequence (chain, as listed by the source mutant limits assumed): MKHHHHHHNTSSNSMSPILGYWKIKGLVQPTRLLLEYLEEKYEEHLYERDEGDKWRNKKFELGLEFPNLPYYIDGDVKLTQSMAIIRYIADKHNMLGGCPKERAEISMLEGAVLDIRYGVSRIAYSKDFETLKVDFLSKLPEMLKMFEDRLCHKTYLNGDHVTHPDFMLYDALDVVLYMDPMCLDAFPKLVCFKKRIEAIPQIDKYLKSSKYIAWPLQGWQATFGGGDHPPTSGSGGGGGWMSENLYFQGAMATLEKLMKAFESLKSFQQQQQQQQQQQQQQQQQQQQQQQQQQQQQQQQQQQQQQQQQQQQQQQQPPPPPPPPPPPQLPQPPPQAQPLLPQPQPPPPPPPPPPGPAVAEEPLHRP
In this section we review reported EC50 values for a set of binders.
assay-readout: EC50 (nM)

binder="ATL_0005059/NI-302.8F1 (antibody, V domains shown, also called ATL_5059; CA_0000274) VH: EVQLVESGGGLVKPGGSLTISCAASGFTFSNAWMNWVRQAPGKGLEWVGHIRTQAEGGTSDYAAPVKGRFTISRDDSKNTLYLQMNSLKTEDTAVYYCIPPPYYYYYGLDVWGQGTTVTVSS VL: QSALTQPASVSGSPGQSITISCTGASSDVGTYDLVSWYQQHPGKAPKLIIYEVNKRPSGVSYRFSASKSANTASLTISGLQAEDEAEYYCCSYAGYSTVFGGGTKLTVL" result_value=17.5
binder="ATL_0005895 (antibody, V domains shown, human IgG1; also called ATL_5895; ATL5895) VH: EVQLVESGGGLVKPGGSLRLSCAASGFTFNKAWMSWVRQAPGKGLEWVGRIKSGIDAGTTDYAAPVKGRFTISRDDSKNTLYLQMNSLKTEDTAVYYCIPPPYYYYYGLDVWGQGTTVTVSS VL: QSALTQPRSVSGSPGQSVTISCTGTSSDVGSYNLVSWYQQHPGKAPKLMIYEVNKRPSGVPDRFSGSKSGATASLTISGLQAEDEADYYCGSYAGTANVFGTGTKVTVL" result_value=3.2
binder="ATL_0005901 (antibody, V domains shown, human IgG1; also called ATL_5901; ATL5901) VH: EVQLVESGGGLVKPGGSLRLSCAASGFTFNKAWMSWVRQAPGKGLEWVGRIKSGIDAGTTDYAAPVKGRFTISRDDSKATLYLQMNSLKTEDTAVYYCIPPPYYYYYGLDVWGQGTTVTVSS VL: QSALTQPASVSGSPGQSITISCTGTSSDVGGYKLVSWYQQHPGRAPKLMIYEVSKRPSGVSSRFSGSKSGSTASLTISGLQAEDEADYYCSSYAGSSVVFGGGTKLTVL" result_value=4.59
binder="ATL_0005567 (antibody, V domains shown, human IgG1; also called ATL_5567; ATL5567) VH: EVQLVESGGGLVKPGGSLRLSCAASGFTFNKAWMNWVRQAPGKGLEWVGRIKSGIDGGTTDYAAPVQGRFTISRDDSKNTVYLQMNSLNTEDTAVYYCIPPPYYYYYGLDVWGQGTTVTVSS VL: QSALTQPASVSGSPGQSITISCTGTSSDIGSYNLVSWYQQHPGNAPKPLIYEGSKRPSGVSARFSGSKSGNTASLTISGLQPEDEADYYCSSYAGFSTLVFGGGTKVTVL" result_value=4.59

meta.source: patent US20260209320A1
